Each recorded value in this set is attributed to the RNAGym collection of RNA variant scans (doi:10.7554/elife.80360).

B1: Twister Ribozyme (parent)
chain: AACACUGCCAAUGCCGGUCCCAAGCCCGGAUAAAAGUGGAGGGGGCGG

Variants of: B1
Assay: self-cleavage, relative activity (ratio to wild type); higher = more cleavage; co-transcriptional
Give Condition met when the value for self-cleavage is at least 0.3. Give Condition not met when it is less.

Before answering, review these 8 worked examples.
| mutant designation | class assignment |
| --- | --- |
| G28A G42A | Condition not met |
| C3A | Condition not met |
| A2C G47A | Condition not met |
| G29U G47C | Condition met |
| G29C A33U | Condition met |
| C15A U31A | Condition met |
| A30C G48U | Condition met |
| G13A C19G | Condition not met |

Request: Does the variant A11C G24A have recorded self-cleavage that is 0.3 or more?
Response: Condition not met

Request: Does the variant U18C G47U have recorded self-cleavage that is 0.3 or more?
Response: Condition not met
